# experimental-system: Serine/threonine-protein kinase TNNI3K (Homo sapiens)
# Sequence (Q59H18 whole entry): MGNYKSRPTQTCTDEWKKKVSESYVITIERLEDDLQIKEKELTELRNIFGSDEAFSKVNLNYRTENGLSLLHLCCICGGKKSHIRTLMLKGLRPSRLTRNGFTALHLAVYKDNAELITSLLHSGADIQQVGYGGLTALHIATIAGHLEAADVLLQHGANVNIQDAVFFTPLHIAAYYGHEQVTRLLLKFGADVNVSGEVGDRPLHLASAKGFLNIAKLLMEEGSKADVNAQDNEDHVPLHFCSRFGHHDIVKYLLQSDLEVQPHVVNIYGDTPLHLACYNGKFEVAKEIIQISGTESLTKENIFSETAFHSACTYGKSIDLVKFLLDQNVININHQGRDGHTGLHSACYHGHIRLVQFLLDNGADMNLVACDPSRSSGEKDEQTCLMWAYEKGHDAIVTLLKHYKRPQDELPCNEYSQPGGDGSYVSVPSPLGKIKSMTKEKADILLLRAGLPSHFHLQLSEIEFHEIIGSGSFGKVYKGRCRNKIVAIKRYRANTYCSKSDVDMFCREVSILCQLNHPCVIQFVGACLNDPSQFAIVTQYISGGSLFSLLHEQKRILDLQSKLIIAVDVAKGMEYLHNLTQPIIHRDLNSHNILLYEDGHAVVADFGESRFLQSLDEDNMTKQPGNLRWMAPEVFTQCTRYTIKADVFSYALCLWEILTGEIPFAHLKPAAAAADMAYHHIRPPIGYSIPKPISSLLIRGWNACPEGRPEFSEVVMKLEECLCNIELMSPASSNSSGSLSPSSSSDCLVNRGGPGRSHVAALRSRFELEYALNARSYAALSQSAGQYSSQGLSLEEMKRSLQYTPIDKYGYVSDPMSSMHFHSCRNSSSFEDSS
# assay-text: Binding affinity to full length human His-MBP-TNNI3K assessed as off-rate constant in presence of rhodamine green labeled GW805818X by fluorescence competitive binding assay
assay-metric: pKi
Please express pKi as -log10 of the molar concentration.

Please fill in: pKi reported for CNc1cc(Oc2c(Cl)cc(NC(=O)Nc3cccc(C(F)(F)F)c3)cc2Cl)ncn1 = 9.27

----------
# Organism: Homo sapiens
# assay-text: Selectivity index, ratio of IC50 for inhibition of VEGFR2 (unknown origin) to IC50 for inhibition of TNNI3K (unknown origin)
assay-metric: Ratio IC50
// return a plain number; no unit text

> print(dat)
                                smiles.text  value.measured
1  O=C(Nc1ccc(Oc2cc(Nc3cccc(CN4CCCC4)c3)ncn2)cc1)Nc1cccc(C(F)(F)F)c1            0.32
2  CNc1cc(Oc2c(C)cc(NC(=O)Nc3cccc(C(F)(F)F)c3)cc2Cl)ncn1             5.1
3  COc1ccc2ncnc(Oc3ccc(NC(=O)Nc4cccc(C(F)(F)F)c4)cc3)c2c1             0.1
4  CNC(=O)c1cc(Oc2ccc(NC(=O)Nc3cccc(C(F)(F)F)c3)cc2)ccn1            0.05
5  CC(=O)Nc1cc(Oc2ccc(NC(=O)Nc3cccc(C(F)(F)F)c3)cc2)ncn1            0.07
6    CNc1cc(Oc2ccc(NC(=O)Nc3ccccc3)cc2)ncn1               1
7  CNc1cc(Oc2ccc(NC(=O)Nc3cccc(C(F)(F)F)c3)c(F)c2F)ncn1            0.13
8  CNc1cc(Oc2ccc(NC(=O)Nc3cccc(C(F)(F)F)c3)c3ccccc23)ncn1             0.5

Please fill in: Ratio IC50 reported for O=C(Nc1ccc(Oc2cc(NCCO)ncn2)cc1)Nc1cccc(C(F)(F)F)c1 = 2.5

Please fill in: Ratio IC50 reported for CC(C)(O)CNc1cc(Oc2ccc(NC(=O)Nc3cccc(C(F)(F)F)c3)cc2)ncn1 = 8

Please fill in: Ratio IC50 reported for O=C(Nc1ccc(Oc2ccncn2)cc1)Nc1cccc(C(F)(F)F)c1 = 0.3
